# Tested on: ES-2 (Ovarian Carcinoma);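 note: after 72 h of two-drug dosing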
# Measurement Protocol: Bliss excess, mean over the matrix (fraction); higher = more synergy
Everything with Bliss excess lower than -0.03 is false (0); everything else, including exactly -0.03, is true (1).

# count of solved cases: 3
INSERT INTO assay_data (compound, target_of_assay, group) VALUES
  ('CS(=O)(=O)CCNCc1ccc(-c2ccc3ncnc(Nc4ccc(OCc5cccc(F)c5)c(Cl)c4)c3c2)o1 [Lapatinib] + C[C@@H](Oc1cc(-c2cnn(C3CCNCC3)c2)cnc1N)c1c(Cl)ccc(F)c1Cl [Crizotinib] (first compound max 10 µM, 7x7, partner max 10 µM)', 'ES-2 (Ovarian Carcinoma)', 'false (0)'),
  ('CCN(CCO)CCCOc1ccc2c(Nc3cc(CC(=O)Nc4cccc(F)c4)[nH]n3)ncnc2c1 [AZD2811] + C[C@@H]1COCCN1C2=NC(=NC(=C2)C3(CC3)[S@](=N)(=O)C)C4=C5C=CNC5=NC=C4 [AZD6738] (first compound max 1 µM, 7x7, partner max 10 µM)', 'ES-2 (Ovarian Carcinoma)', 'false (0)'),
  ('CN(CCO)CC[C@H](CSc1ccccc1)Nc1ccc(S(=O)(=O)NC(=O)c2ccc(N3CCC([C@@H](O)c4ccccc4-c4ccc(Cl)cc4)CC3)cc2)cc1S(=O)(=O)C(F)(F)F [AZD4320] + Cn1cnc2c(F)c(Nc3ccc(Br)cc3Cl)c(C(=O)NOCCO)cc21 [Selumetinib] (first compound max 1 µM, 7x7, partner max 3 µM)', 'ES-2 (Ovarian Carcinoma)', 'true (1)');

Now examine the next entry.
Q: Could you tell me if the measured Bliss excess of COc1cccc(OCCCN)c1-c1cc(Nc2cnc(C#N)cn2)n[nH]1 [Prexasertib] + C=CCn1c(=O)c2cnc(Nc3ccc(N4CCN(C)CC4)cc3)nc2n1-c1cccc(C(C)(C)O)n1 [AZD1775] (first compound max 1 µM, partner max 1 µM) reaches -0.03 or more?
Ans: true (1)

###

# System: Becker (Low Grade Glioma)
# Measurement Protocol: combination Emax (second highest fraction inhibited in the dose matrix, 72 h); higher = more inhibition; extreme values may be limits of the assay
Property: combination Emax
The answer should be written as a number, with no unit following it.

Please review the entries below; each comes with its answer.
INSERT INTO measurements (molecule, property, measured_value) VALUES
  ('Cc1nc(Nc2ncc(C(=O)Nc3c(C)cccc3Cl)s2)cc(N2CCN(CCO)CC2)n1 [Dasatinib] + CC(=O)Nc1cccc(-n2c(=O)n(C3CC3)c(=O)c3c(Nc4ccc(I)cc4F)n(C)c(=O)c(C)c32)c1 [Trametinib] (first compound max 2 µM, 7x7, partner max 1 µM)', 'combination Emax', 0.5),
  ('O=C(c1cc(Cc2n[nH]c(=O)c3ccccc23)ccc1F)N1CCN(C(=O)C2CC2)CC1 [Olaparib] + CN(CC[C@H](CSC1=CC=CC=C1)NC2=C(C=C(C=C2)S(=O)(=O)NC(=O)C3=CC=C(C=C3)N4CCC(CC4)[C@H](C5=CC=CC=C5C6=CC=C(C=C6)Cl)O)S(=O)(=O)C(F)(F)F)CCO [AZD4320] (first compound max 10 µM, 7x7, partner max 1 µM)', 'combination Emax', 0.164),
  ('N#Cc1cnc(Nc2cc(NC[C@H]3CNCCO3)c(C(F)(F)F)cn2)cn1 [SRA737] + CCc1c2c(nc3ccc(O)cc13)-c1cc3c(c(=O)n1C2)COC(=O)[C@]3(O)CC [SN-38] (first compound max 10 µM, 7x7, partner max 0.3 µM)', 'combination Emax', 0.865);

--- query ---
Q: Record request: combination Emax value, item CN(CCO)CC[C@H](CSc1ccccc1)Nc1ccc(S(=O)(=O)NC(=O)c2ccc(N3CCC([C@@H](O)c4ccccc4-c4ccc(Cl)cc4)CC3)cc2)cc1S(=O)(=O)C(F)(F)F [AZD4320] + C[C@@H](Nc1cc(F)cc(F)c1)c1cc(C(=O)N(C)C)cc2c(=O)cc(N3CCOCC3)oc12 [AZD8186] (first compound max 1 µM, 7x7, partner max 3 µM)
Ans: 0.431
